tested on: Staphylococcus aureus; experiment: Ratio of MIC for community acquired methicillin-resistant Staphylococcus aureus USA300 in presence of targocil to MIC for community acquired methicillin-resistant Staphylococcus aureus USA300 by checkerboard broth microdilution assay; type: functional
assay-readout: fractional inhibitory concentration index (FICI)

[
  {
    "compound": "Clc1cccc(CN2CCc3ccccc3C2)c1",
    "measured": 8.1
  },
  {
    "compound": "CCN1CCN(Cc2ccccc2Cl)CC1",
    "measured": 2
  },
  {
    "compound": "c1cc2c(s1)CCNC2",
    "measured": 2
  },
  {
    "compound": "c1ccc2c(c1)CCN(Cc1ccc3ccccc3c1)C2",
    "measured": 8.1
  },
  {
    "compound": "Clc1ccccc1CN1CCCC1",
    "measured": 2
  }
]

In: May I ask what fractional inhibitory concentration index (FICI) has been recorded for COC(=O)[C@H](c1ccccc1Cl)N1CCc2sccc2C1 [CLOPIDOGREL] ?
Out: 8.1

In: Look up fractional inhibitory concentration index (FICI) for this compound: `Clc1ccccc1CN1CCCCC1`
Out: 2

In: Which fractional inhibitory concentration index (FICI) is listed for `FC(F)(F)c1ccccc1CN1CCc2ccccc2C1` ?
Out: 8.3

Values from ChEMBL document CHEMBL3112416
